Measured melting point, listed per entry.

Some entries whose results are on file:
- compound: "CN(C)S(=O)(=O)O[C@H]1CCC2C3CCc4cc(O)ccc4C3CC[C@@]21C (stereo partly drawn)"
  data value: "170 to 173 °C"
- compound: "CC1=C2CCC3c4ccc(OS(N)(=O)=O)cc4CCC3C2CC1 (stereo not drawn)"
  data value: "172 to 176 °C"
- compound: "C[C@]12CCC3c4ccc(O)cc4CCC3C1CC[C@H]2OS(=O)(=O)N(Cc1ccccc1)Cc1ccccc1 (stereo partly drawn)"
  data value: "57 to 60 °C"
- compound: "C[C@]12CCC3c4ccc(OCc5ccccc5)cc4CCC3C1CC[C@@H]2OS(N)(=O)=O (stereo partly drawn)"
  data value: "108 to 109 °C"
- compound: "C[C@]12CCC3c4ccc(OCc5ccccc5)cc4CCC3C1CC[C@H]2OS(=O)(=O)N(Cc1ccccc1)Cc1ccccc1 (stereo partly drawn)"
  data value: "115 to 116 °C"
- compound: "CN(C)S(=O)(=O)O[C@@H]1CCC2C3CCc4cc(OCc5ccccc5)ccc4C3CC[C@@]21C (stereo partly drawn)"
  data value: "82 to 86 °C (dec.)"
- compound: "NS(=O)(=O)Oc1ccc(C(O)(c2ccc(OS(N)(=O)=O)cc2)C2CCCCC2)cc1"
  data value: "213 to 215 °C (dec.)"
- compound: "CC(=O)NS(=O)(=O)O[C@H]1CCC2C3CCc4cc(O)ccc4C3CC[C@@]21C (stereo partly drawn)"
  data value: "130 to 134 °C (dec.)"

Form field: reported melting point of C[C@]12CCC3c4ccc(OCc5ccccc5)cc4CCC3C1CC[C@H]2OS(N)(=O)=O (stereo partly drawn) 91 to 93 °C

Value lookup for melting point; key = O=C1c2ccccc2C(=O)c2c1oc1cc(O)ccc21 > 310 °C

# melting point lookup, item C[C@]12CCC3c4ccc(O)cc4CCC3C1CC[C@@H]2OS(=O)(=O)N(Cc1ccccc1)Cc1ccccc1 (stereo partly drawn) 60 to 63 °C

Fill in the blank: the reported melting point of CCCCCN(CCCCC)S(=O)(=O)O[C@H]1CCC2C3CCc4cc(O)ccc4C3CC[C@@]21C (stereo partly drawn) is ____. 93 to 96 °C

###

The following compounds are shown together with reported % Inhibition of E1-STS activity in MCF-7 cells values.
study target: oestrone sulphatase (E1-STS) (Homo sapiens)
Sequence (P08842 22-583): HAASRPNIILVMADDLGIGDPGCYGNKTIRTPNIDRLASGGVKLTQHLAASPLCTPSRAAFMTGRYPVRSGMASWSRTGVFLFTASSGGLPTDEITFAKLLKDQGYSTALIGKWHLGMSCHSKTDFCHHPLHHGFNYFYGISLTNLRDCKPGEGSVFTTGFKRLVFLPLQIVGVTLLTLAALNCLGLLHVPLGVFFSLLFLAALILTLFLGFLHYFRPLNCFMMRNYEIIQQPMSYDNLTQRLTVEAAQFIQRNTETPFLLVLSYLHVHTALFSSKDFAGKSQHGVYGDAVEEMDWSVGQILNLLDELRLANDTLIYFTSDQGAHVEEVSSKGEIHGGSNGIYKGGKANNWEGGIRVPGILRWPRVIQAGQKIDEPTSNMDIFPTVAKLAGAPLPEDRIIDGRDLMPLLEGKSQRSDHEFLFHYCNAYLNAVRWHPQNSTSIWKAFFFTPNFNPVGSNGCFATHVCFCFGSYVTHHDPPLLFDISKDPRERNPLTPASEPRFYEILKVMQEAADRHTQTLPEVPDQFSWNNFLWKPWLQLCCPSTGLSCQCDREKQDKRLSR
assay details: Inhibition of steroid sulphatase (E1-STS) activity in intact MCF-7 breast cancer cells
Assay type: cell-based
test conditions: 0.1 μM
Form entry: value (%) — number only.

- compound: "NS(=O)(=O)Oc1ccc(C(=O)c2ccc(OS(N)(=O)=O)cc2)cc1 [Compound 3, Benzophenone-4,4′-O,O-bis-sulphamate]"
  data value: 71.41

# query: % Inhibition of E1-STS activity in MCF-7 cells of entry NS(=O)(=O)Oc1ccc(C(=O)c2ccc(O)cc2)cc1 [Compound 5, 4′-Hydroxybenzophenone-4-O-sulphamate] 34.8

Could you share which % Inhibition of E1-STS activity in MCF-7 cells value was measured for NS(=O)(=O)Oc1ccc2oc3ccccc3c2c1 [Compound 9, Dibenzofuran-2-O-sulphamate] ? 21.3

Returns the measured % Inhibition of E1-STS activity in MCF-7 cells for the input compound. Input: NS(=O)(=O)Oc1ccc(Cc2ccc(OS(N)(=O)=O)cc2)cc1 22.2

Which % Inhibition of E1-STS activity in MCF-7 cells value is on record for NS(=O)(=O)Oc1cccc(C(=O)c2cccc(OS(N)(=O)=O)c2)c1 [Compound 28, Benzophenone-3,3′-O,O-bis-sulphamate] ? 75.3

###

study target: oestrone sulphatase (E1-STS) (Homo sapiens)
assay details: Inhibition of steroid sulphatase (E1-STS) activity in intact MCF-7 breast cancer cells
Type: cell-based
test conditions: 10 μM
Recorded % Inhibition of E1-STS activity in MCF-7 cells values for a group of molecules are listed next.
Express it in %; write the number only.

Solved cases below.
- molecule: "NS(=O)(=O)Oc1ccc(C23CC4CC(CC(c5ccc(O)cc5)(C4)C2)C3)cc1 [Compound 21]"
  uom: "%"
  data value: 64.1
- molecule: "NS(=O)(=O)Oc1ccc(C(=O)C=Cc2ccccc2)cc1 [Compound 8, Chalcone-4′-O-sulphamate]"
  uom: "%"
  data value: 87.89
- molecule: "NS(=O)(=O)Oc1ccc(Cc2ccc(OS(N)(=O)=O)cc2)cc1 [Compound 18, 4,4′-Bis-sulphamoyloxydiphenylmethane]"
  uom: "%"
  data value: 93.3

Recorded % Inhibition of E1-STS activity in MCF-7 cells of NS(=O)(=O)Oc1ccc(C=CC(=O)c2ccccc2)cc1 [Compound 7, Chalcone-4-O-sulphamate] , please. 83.81

Field request: % Inhibition of E1-STS activity in MCF-7 cells | item: NS(=O)(=O)Oc1ccc2c(c1)C(=O)c1ccc(OS(N)(=O)=O)cc1C2=O [Compound 10, Anthraquinone-2,6-O,O-bis-sulphamate] 99.1

// returns reported % Inhibition of E1-STS activity in MCF-7 cells for input NS(=O)(=O)Oc1ccc(C(=O)c2ccc(O)cc2)cc1 [Compound 5, 4′-Hydroxybenzophenone-4-O-sulphamate] 96.7

###

study target: oestrone sulphatase (E1-STS) (Homo sapiens, UniProt P08842)
assay details: Inhibition of steroid sulphatase activity in placental microsomes
Assay type: biochemical
Parameters: from tissue; host or cells: human term placenta (microsomal preparation)
test conditions: 100 µM
% Inhibition of E1-STS activity in placental microsomes vs 80%: at or above is Y, below is N.

Reference set, count: 5
- molecule: "NS(=O)(=O)Oc1ccc2oc3ccccc3c2c1 [Compound 9, Dibenzofuran-2-O-sulphamate]"
  category: "N"
- molecule: "NS(=O)(=O)Oc1ccc(Cc2ccc(OS(N)(=O)=O)cc2)cc1"
  category: "N"
- molecule: "Oc1ccc(C(O)(c2ccc(O)cc2)C2CCCCC2)cc1"
  category: "N"
- molecule: "NS(=O)(=O)Oc1ccc(C23CC4CC(CC(c5ccc(O)cc5)(C4)C2)C3)cc1"
  category: "N"
- molecule: "NS(=O)(=O)Oc1ccc(Cc2ccc(O)cc2)cc1"
  category: "N"

Does NS(=O)(=O)Oc1ccc(C(=O)c2ccc(OS(N)(=O)=O)cc2)cc1 [Compound 3, Benzophenone-4,4′-O,O-bis-sulphamate] have a reported % Inhibition of E1-STS activity in placental microsomes of at least 80%? Y

Form field: % Inhibition of E1-STS activity in placental microsomes at least 80%? Entry: NS(=O)(=O)Oc1ccc(C=CC(=O)c2ccccc2)cc1 [Compound 7, Chalcone-4-O-sulphamate] Y

% Inhibition of E1-STS activity in placental microsomes >= 80% for NS(=O)(=O)Oc1ccc(S(=O)(=O)c2ccc(OS(N)(=O)=O)cc2)cc1 ? Y

Test whether the molecule NS(=O)(=O)Oc1ccc(C(=O)c2ccccc2)cc1 [Compound 6, Benzophenone-4-O-sulphamate] records % Inhibition of E1-STS activity in placental microsomes of 80% or higher. Y

Is % Inhibition of E1-STS activity in placental microsomes for NS(=O)(=O)Oc1ccc(Sc2ccc(OS(N)(=O)=O)cc2)cc1 [Compound 15, Thiodiphenyl-4,4′O,O-bis-sulphamate] at or above 80%? Y

Can NS(=O)(=O)Oc1ccc(Sc2ccc(O)cc2)cc1 [Compound 16, 4′-hydroxy-thiodiphenyl-4-O-sulphamate] be said to have % Inhibition of E1-STS activity in placental microsomes at or above 80%? N

hey, is % Inhibition of E1-STS activity in placental microsomes for this one >= 80%? NS(=O)(=O)Oc1cccc(C(=O)c2cccc(O)c2)c1 [Compound 29, 3′-hydroxybenzophenone-3-O-sulphamate] N

Is reported % Inhibition of E1-STS activity in placental microsomes greater than or equal to 80% here: NS(=O)(=O)Oc1ccc2c(c1)C(=O)c1ccc(OS(N)(=O)=O)cc1C2=O [Compound 10, Anthraquinone-2,6-O,O-bis-sulphamate] Y

# check: % Inhibition of E1-STS activity in placental microsomes of NS(=O)(=O)Oc1ccc(C(=O)c2ccc(O)cc2)cc1 [Compound 5, 4′-Hydroxybenzophenone-4-O-sulphamate] is greater than or equal to 80% Y

Determine whether measured % Inhibition of E1-STS activity in placental microsomes meets or exceeds 80% for NS(=O)(=O)Oc1ccc2c(c1)C(=O)c1ccc(O)cc1C2=O [Compound 11, 2-hydroxyanthraquinone-6-O-sulphamate] Y

Say whether NS(=O)(=O)Oc1ccc(C23CC4CC(C2)CC(c2ccc(OS(N)(=O)=O)cc2)(C4)C3)cc1 shows % Inhibition of E1-STS activity in placental microsomes of 80% or more. N
